Reference source for all entries: the supplement of paper PMC6555819

# Test system: RARg:RXRa (NR concentration 270 nM, RXRa partner concentration 90 nM)
# EXPERIMENT SUMMARY: PBM binding z-score (relative to random genomic background probes); higher = stronger binding; sequences stand for … in GC…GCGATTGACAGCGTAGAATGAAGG
Think of 2 as a floor: if PBM binding z-score stands on it or above, it is class 1; beneath it, class 0.

| RESIDUES | ANSWER LABEL |
| --- | --- |
| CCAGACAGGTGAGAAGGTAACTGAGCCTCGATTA | class 0 |
| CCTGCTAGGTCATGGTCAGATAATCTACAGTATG | class 1 |
| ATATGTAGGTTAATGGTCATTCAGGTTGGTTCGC | class 0 |
| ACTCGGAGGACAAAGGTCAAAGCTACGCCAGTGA | class 1 |
| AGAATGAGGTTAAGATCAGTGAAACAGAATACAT | class 1 |
| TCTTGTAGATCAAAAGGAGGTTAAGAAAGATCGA | class 0 |
| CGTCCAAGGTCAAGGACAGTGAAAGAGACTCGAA | class 1 |
| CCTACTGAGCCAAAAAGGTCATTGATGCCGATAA | class 1 |
| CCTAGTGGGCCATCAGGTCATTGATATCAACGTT | class 1 |
| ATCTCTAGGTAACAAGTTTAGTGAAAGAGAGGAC | class 0 |
| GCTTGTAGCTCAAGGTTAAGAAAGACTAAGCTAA | class 0 |
| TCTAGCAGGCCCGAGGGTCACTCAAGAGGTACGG | class 1 |
| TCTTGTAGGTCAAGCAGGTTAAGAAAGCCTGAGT | class 1 |
| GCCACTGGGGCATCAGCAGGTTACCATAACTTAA | class 0 |
| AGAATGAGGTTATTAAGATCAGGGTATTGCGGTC | class 0 |
| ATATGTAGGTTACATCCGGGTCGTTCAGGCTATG | class 0 |
| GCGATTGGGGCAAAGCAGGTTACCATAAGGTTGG | class 0 |
| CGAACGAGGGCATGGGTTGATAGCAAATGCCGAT | class 0 |
| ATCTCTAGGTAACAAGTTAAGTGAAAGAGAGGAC | class 0 |
| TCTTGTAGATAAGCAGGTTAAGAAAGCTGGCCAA | class 0 |
| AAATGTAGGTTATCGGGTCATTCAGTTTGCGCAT | class 1 |
| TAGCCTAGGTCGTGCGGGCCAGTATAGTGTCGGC | class 0 |
| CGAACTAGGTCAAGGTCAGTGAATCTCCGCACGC | class 1 |
| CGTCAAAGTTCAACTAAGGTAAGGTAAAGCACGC | class 1 |
| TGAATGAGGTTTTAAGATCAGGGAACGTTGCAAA | class 0 |
| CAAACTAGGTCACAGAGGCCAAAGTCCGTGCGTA | class 1 |
| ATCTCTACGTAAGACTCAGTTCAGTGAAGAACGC | class 0 |
| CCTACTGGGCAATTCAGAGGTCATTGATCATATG | class 1 |
| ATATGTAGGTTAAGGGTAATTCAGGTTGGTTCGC | class 0 |
| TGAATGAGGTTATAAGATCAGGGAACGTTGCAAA | class 0 |
| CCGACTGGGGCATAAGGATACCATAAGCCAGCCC | class 0 |
| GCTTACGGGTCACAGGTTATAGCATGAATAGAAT | class 1 |
| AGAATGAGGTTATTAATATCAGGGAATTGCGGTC | class 0 |
| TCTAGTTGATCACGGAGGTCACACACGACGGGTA | class 1 |
| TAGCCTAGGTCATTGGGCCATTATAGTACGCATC | class 1 |
| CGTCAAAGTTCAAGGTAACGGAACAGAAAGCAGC | class 1 |
| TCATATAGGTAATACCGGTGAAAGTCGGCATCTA | class 0 |
| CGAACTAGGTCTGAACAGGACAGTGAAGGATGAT | class 0 |
| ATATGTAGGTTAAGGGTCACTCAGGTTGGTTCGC | class 1 |
| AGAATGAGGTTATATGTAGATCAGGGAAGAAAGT | class 0 |

###

# System: PXR homodimer (NR concentration 270 nM)
# EXPERIMENT SUMMARY: PBM binding z-score (relative to random genomic background probes); higher = stronger binding; sequences stand for … in GC…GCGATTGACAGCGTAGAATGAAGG
QUANTITY NAME: PBM binding z-score

| RESIDUES | TARGET | NUMBER |
| --- | --- | --- |
| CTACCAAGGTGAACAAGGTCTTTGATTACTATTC | PXR homodimer (NR concentration 270 nM) | 0.0854 |
| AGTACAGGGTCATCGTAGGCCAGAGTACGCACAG | PXR homodimer (NR concentration 270 nM) | 0.894 |
| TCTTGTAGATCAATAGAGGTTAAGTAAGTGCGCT | PXR homodimer (NR concentration 270 nM) | 0.52 |
| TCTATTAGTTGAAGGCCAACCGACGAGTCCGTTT | PXR homodimer (NR concentration 270 nM) | 1.4 |
| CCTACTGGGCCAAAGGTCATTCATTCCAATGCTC | PXR homodimer (NR concentration 270 nM) | 2.49 |
| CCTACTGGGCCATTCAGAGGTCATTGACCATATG | PXR homodimer (NR concentration 270 nM) | 2.23 |
| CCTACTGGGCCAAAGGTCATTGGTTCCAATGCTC | PXR homodimer (NR concentration 270 nM) | 2.21 |
| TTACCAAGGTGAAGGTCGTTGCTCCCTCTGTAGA | PXR homodimer (NR concentration 270 nM) | 0.225 |
| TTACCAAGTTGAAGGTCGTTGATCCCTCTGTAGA | PXR homodimer (NR concentration 270 nM) | 0.298 |
| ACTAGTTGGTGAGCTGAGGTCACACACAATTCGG | PXR homodimer (NR concentration 270 nM) | 1.9 |
| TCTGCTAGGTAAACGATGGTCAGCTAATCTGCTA | PXR homodimer (NR concentration 270 nM) | -0.821 |
| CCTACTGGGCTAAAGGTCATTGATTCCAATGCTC | PXR homodimer (NR concentration 270 nM) | 1.35 |
| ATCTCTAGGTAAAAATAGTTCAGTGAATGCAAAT | PXR homodimer (NR concentration 270 nM) | 1.12 |
| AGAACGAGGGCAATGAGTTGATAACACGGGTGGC | PXR homodimer (NR concentration 270 nM) | 4.8 |
| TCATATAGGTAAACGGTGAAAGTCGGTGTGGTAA | PXR homodimer (NR concentration 270 nM) | 0.405 |

###

# System: RARb:RXRa (NR concentration 270 nM, RXRa partner concentration 90 nM)
# EXPERIMENT SUMMARY: PBM binding z-score (relative to random genomic background probes); higher = stronger binding; sequences stand for … in GC…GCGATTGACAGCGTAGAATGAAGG

| RESIDUES | PBM binding z-score |
| --- | --- |
| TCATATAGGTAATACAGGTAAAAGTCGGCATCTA | 0.572 |
| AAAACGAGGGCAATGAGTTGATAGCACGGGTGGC | 2.18 |
| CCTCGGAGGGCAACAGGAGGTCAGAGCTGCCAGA | 3.71 |
| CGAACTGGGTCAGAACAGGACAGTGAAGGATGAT | 2.23 |
| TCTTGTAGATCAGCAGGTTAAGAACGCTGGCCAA | 0.0804 |
| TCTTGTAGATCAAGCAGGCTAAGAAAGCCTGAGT | -0.756 |
| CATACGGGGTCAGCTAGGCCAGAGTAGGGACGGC | 4.84 |
| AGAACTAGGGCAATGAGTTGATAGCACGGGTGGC | 1.31 |
| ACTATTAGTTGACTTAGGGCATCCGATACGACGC | 0.643 |
| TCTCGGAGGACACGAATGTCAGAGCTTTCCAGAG | 1.47 |
| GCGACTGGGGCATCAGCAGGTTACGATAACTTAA | 0.866 |
| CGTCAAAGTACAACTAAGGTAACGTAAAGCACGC | 1.34 |
| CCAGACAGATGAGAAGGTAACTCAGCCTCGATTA | -0.0941 |
| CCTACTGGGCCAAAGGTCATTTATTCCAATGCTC | 4.25 |

###

# Tested on: PPARg:RXRa DBDmut IVT, anti-RXR (DBD mutation: RXRa K156A/R161A, NR concentration 270 nM, RXRa partner concentration 90 nM)
# EXPERIMENT SUMMARY: PBM binding z-score (relative to random genomic background probes); higher = stronger binding; sequences stand for … in GC…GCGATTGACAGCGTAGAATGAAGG
Think of 0.6 as a floor: if PBM binding z-score stands on it or above, it is Satisfied; beneath it, Not satisfied.

| RESIDUES | ANSWER LABEL |
| --- | --- |
| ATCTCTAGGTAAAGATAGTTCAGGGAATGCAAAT | Satisfied |
| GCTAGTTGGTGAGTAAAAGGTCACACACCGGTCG | Not satisfied |
| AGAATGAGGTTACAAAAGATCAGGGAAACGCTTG | Satisfied |
| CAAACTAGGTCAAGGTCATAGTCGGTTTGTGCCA | Satisfied |
| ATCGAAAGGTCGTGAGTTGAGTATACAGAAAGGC | Not satisfied |
| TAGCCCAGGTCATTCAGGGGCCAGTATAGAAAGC | Satisfied |
| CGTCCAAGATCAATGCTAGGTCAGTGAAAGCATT | Not satisfied |
| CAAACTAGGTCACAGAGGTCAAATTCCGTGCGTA | Satisfied |
| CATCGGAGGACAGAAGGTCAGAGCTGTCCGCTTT | Not satisfied |
| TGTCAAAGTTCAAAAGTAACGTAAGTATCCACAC | Not satisfied |
| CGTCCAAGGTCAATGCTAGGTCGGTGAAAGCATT | Satisfied |
| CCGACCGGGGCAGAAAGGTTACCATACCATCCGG | Not satisfied |
| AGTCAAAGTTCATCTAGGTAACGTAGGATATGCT | Satisfied |
| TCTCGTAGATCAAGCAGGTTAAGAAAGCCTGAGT | Satisfied |
